Data credit: PubChem BioAssay AID1159580

test: chemical genetic growth profiling, strain panel (AID 1159580);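 note: tested at 20 µM; growth read once vehicle control cultures reached saturation at 30 °C; 1 = growth at the plate median or of vehicle wells; lower values mean less growth of the strain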; conditions: S. cerevisiae deletion strains, growth OD, locus YLR027C, strain aat2, hits give low values
In all, about 5,500 compounds went through this assay and about 2,000 (36%) were called active. Another 18% or so got no clear call; they are omitted. This is one part of the list.
Property name: normalized growth

For orientation, consider the following solved cases.
>>> result("CC1=C(/C=C/C(C)=C/C=C/C(C)=C/C=C/C=C(C)/C=C/C=C(C)/C=C/C(=O)[C@]2(C)C[C@@H](O)CC2(C)C)C(C)(C)C[C@H](O)C1")
"1.02 (inactive)"
>>> result("O=C(O)c1cc2ccccc2c(Cc2c(O)c(C(=O)O)cc3ccccc23)c1O")
"0.999 (inactive)"
>>> result("CC1=C(/C=C/C(C)=C/C=C/C(C)=C/C=C/C=C(C)/C=C/C=C(C)/C=C/C2=C(C)C(=O)C(O)CC2(C)C)C(C)(C)CC(O)C1=O (stereo not given)")
"1.03 (inactive)"
>>> result("COC1=CC(=O)C[C@@H](C)[C@]12Oc1c(Cl)c(OC)cc(OC)c1C2=O")
"0.993 (inactive)"

Could you now consider this next molecule?
Query :: # lookup: normalized growth of CCOC(=O)C(=O)C1(C(=O)OCC)Oc2cc(OC)cc(OC)c2C(=O)C1c1ccccc1 (stereo not given)
Result :: 0.95 (inactive)

###

assay: chemical genetic growth profiling, strain panel (AID 1159580);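 note: tested at 20 µM; growth read once vehicle control cultures reached saturation at 30 °C; 1 = growth at the plate median or of vehicle wells; lower values mean less growth of the strain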; settings: S. cerevisiae deletion strains, growth OD, locus YJL187C, strain SWE1 (second series), hits give low values
In all, about 5,500 compounds went through this assay and about 2,000 (36%) were called active. Another 18% or so got no clear call; they are omitted. The list shows a part of the results.
Property name: normalized growth

Past entries and their recorded results:
>>> result("COc1ccc(OC)c(C(O)C(C)N)c1 (centres undefined)")
"1.02 (inactive)"
>>> result("CC(=O)N[C@@H](CC(C)C)C(=O)O")
"1.02 (inactive)"
>>> result("C=Cc1c2[nH]c(c1C)C=c1[nH]c(c(C)c1C=C)=CC1N=C(C=c3[nH]c(c(C)c3CCC(=O)O)=C2)C(CCC(=O)O)=C1C (centres undefined)")
"1 (inactive)"
>>> result("CC(=O)OCC(=O)[C@H]1CCC2C3CCC4=CC(=O)CC[C@]4(C)C3CC[C@@]21C (some centres undefined)")
"0.935 (inactive)"
>>> result("CC(=O)OC(C)(C)[C@@H]1Cc2cc3ccc(=O)oc3cc2O1")
"1 (inactive)"
>>> result("CCC(C)C(=O)O[C@H]1[C@H](O)C2C(CN3CC(C)CCC3[C@@]2(C)O)C2C[C@]34O[C@]5(O)C(OC(=O)C(C)(O)C(C)O)CC[C@@]3(C)C5C(OC(C)=O)[C@@H](OC(C)=O)C4[C@@]21O (some centres undefined)")
"1.01 (inactive)"

Query :: Give its normalized growth value. Item: CN(C)c1ccc(C(=C2C=CC(=[N+](C)C)C=C2)c2ccc(N(C)C)cc2)cc1
Result :: 0.333 (active)

Query :: Please look up its normalized growth: COc1cc(O)c(C(=O)/C=C/c2ccccc2)c(OC)c1
Result :: 0.866 (active)

Query :: Which normalized growth is reported for this compound? O=C(O)C1(O)C[C@@H](O)C(O)[C@H](O)C1 (some centres undefined)
Result :: 1.01 (inactive)

Query :: What does the record list as normalized growth for COc1ccc2cc([C@H](C)CO)ccc2c1 ?
Result :: 0.982 (inactive)

Query :: Which normalized growth value is on record for COc1ccc2cc([C@H](C)C(=O)O)ccc2c1 ?
Result :: 1.02 (inactive)

Query :: Consider the compound CCN(CC)CCCC(C)Nc1c2ccc(Cl)cc2nc2ccc(OC)cc12 (centres undefined) and give its measured normalized growth.
Result :: 0.453 (active)

Query :: Field request: normalized growth | item: CC1=C(/C=C/C(C)=C/C=C/C(C)=C/C=C/C=C(C)/C=C/C=C(C)/C=C/C2=C(C)C(=O)C(O)CC2(C)C)C(C)(C)CC(O)C1=O (centres undefined)
Result :: 1.01 (inactive)

Query :: Look up normalized growth for this compound: CC(C(=O)O)c1cccc(C(=O)c2ccccc2)c1 (centres undefined)
Result :: 1.03 (inactive)

Query :: Fill in the blank: the reported normalized growth of CC(C(=O)O)c1ccc(-c2ccccc2)c(F)c1 (centres undefined) is ____.
Result :: 0.989 (inactive)

Query :: Endpoint output: normalized growth of CC(C(=O)O)c1cccc(Oc2ccccc2)c1 (centres undefined) . Value?
Result :: 0.983 (inactive)

Query :: # normalized growth lookup, item NCCSSCCN
Result :: 1.03 (inactive)

Query :: Look up normalized growth: C[N+](C)(C)CCOC(N)=O
Result :: 0.986 (inactive)

Query :: Suppose we examine the compound CC(C[N+](C)(C)C)OC(N)=O (centres undefined) ; what normalized growth value has been reported?
Result :: 0.987 (inactive)
